- testSummary: modulators of CD8 T cell-vesicle binding, confirmation, cherry-picked primary hits, two concentrations (AID 2810);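 note: lower values mean blocking of vesicle binding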
- testConditions: 2C CD8+ T cell-vesicle binding, flow cytometry; CD8+/vesicle+ events; at 7.7 µM
Among all 1,200 compounds or so, about 65 (5%) were called active. This excerpt belongs to a sample that is enriched for actives.
quantityName: double positive events (%)

1. COc1ccc(C(=O)O)cc1S(=O)(=O)Nc1cccc(C)c1	14.1
2. COc1ccc(S(=O)(=O)N(C)c2ccc(C(=O)NCC3CCCO3)cc2)cc1OC (stereo unspecified)	21.6
3. CC(C)(CNC(=O)c1cc2c(s1)CCCC2)N1CCOCC1	8
4. COc1ccccc1CNC(=O)C1CCC1	33.3
5. COc1cc(CC(=O)OCC(=O)NCc2ccc(C)cc2)cc(OC)c1OC	12.7
6. COCCNC(=O)c1c[nH]c2ccc(OC)cc2c1=O	18.7
7. CC(=O)c1ccc(Nc2cc(C)nc3nc(C)nn23)cc1	10.4
8. COc1ccc2nc(SCC(=O)Nc3ccc4c(c3)OCCO4)[nH]c2c1	10.5
9. COc1ccccc1CNC(=O)c1ccc(N(C)S(=O)(=O)c2ccc(C)cc2)cc1	17.5
10. Cc1cc(C)cc(NC(=O)C(=O)NCCCN2CCCC2=O)c1	10
11. COc1ccccc1CNC(=O)CN(Cc1ccc(Cl)cc1)S(C)(=O)=O	25.3

====

Property: percent response (vesicle binding); scope: individual molecules
- testSummary: modulators of CD8 T cell-vesicle binding, confirmation, cherry-picked primary hits, two concentrations (AID 2810);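 note: lower values mean blocking of vesicle binding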;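 for percent response (vesicle binding): ratio of mean FL2 vesicle stain of CD8+ cells to that row's control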
- testConditions: 2C CD8+ T cell-vesicle binding, flow cytometry; response; at 7.7 µM
Among all 1,200 compounds or so, about 65 (5%) were called active. Only a selection was taken, and actives are over-represented in it overall.
quantityName: percent response (vesicle binding) (%)

1. CCc1c(O)cc2n(c1=O)-c1ccccc1C2(C)C	485
2. COc1ccc(C(=O)NNC(=O)CSc2nnnn2C)cc1	160
3. COc1ccc(S(=O)(=O)N(C)C[C@H]2Oc3ccc(NC(=O)C4CC4)cc3C(=O)N([C@H](C)CO)C[C@@H]2C)cc1	102
4. O=C(NCCO)/C(=C\c1ccc(Br)cc1)NC(=O)c1cccs1	70.4
5. CCC(C)c1ccc(NC(=O)NCc2cccnc2)cc1 (stereo unspecified)	356
6. COc1ccc(C(=O)CSc2nnc(CNC(=O)c3ccc(OC)c(OC)c3)n2C)cc1	300
7. COc1ccc(NCC(O)Cn2c(C)c(C)c3ccccc32)cc1 (stereo unspecified)	101
8. COc1ccc(OC)c(C(c2nnnn2CCC(C)C)N2CCN(C(=O)c3ccco3)CC2)c1 (stereo unspecified)	208
9. CCOC(=O)CSc1nc(C)nc2c1sc1nc(C)c(C(C)=O)c(-c3ccc(OC)cc3)c12	327
10. CCOC(=O)C(c1ccccc1)N1CCN(c2ccc(OC)cc2)CC1 (stereo unspecified)	255
11. CC(C)c1ccc(NC(=O)NCc2cccnc2)cc1	415

====

Property: percent response (vesicle binding); scope: individual compounds
- testSummary: modulators of CD8 T cell-vesicle binding, confirmation, cherry-picked primary hits, two concentrations (AID 2810);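 note: lower values mean blocking of vesicle binding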;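 for percent response (vesicle binding): ratio of mean FL2 vesicle stain of CD8+ cells to that row's control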
- testConditions: 2C CD8+ T cell-vesicle binding, flow cytometry; response; at 7.7 µM
The campaign covered roughly 1,200 compounds. About 65 (5%) were called active. What follows is part of a selection rich in actives, with near analogues and random picks from the rest.
quantityName: percent response (vesicle binding) (%)

1) Cc1cc(C(=O)COC(=O)Cc2ccc(Cl)cc2)c(C)n1C	226
2) Cc1c(NC(=S)NC(=O)CCc2ccccc2)c(=O)n(-c2ccccc2)n1C	278
3) CCC(=O)NC(NC(=S)Nc1c(C)n(C)n(-c2ccccc2)c1=O)C(Cl)(Cl)Cl (stereo not given)	201
4) COc1ccc(Br)cc1CN(C)C(=O)c1ccc2c(c1)NC(=O)C(C)S2 (stereo not given)	368
5) O=C(Nc1ccccc1C(=O)NCc1cccnc1)c1ccccc1Cl	364

====

- testSummary: modulators of CD8 T cell-vesicle binding, confirmation, cherry-picked primary hits, two concentrations (AID 2810);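 note: lower values mean blocking of vesicle binding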
- testConditions: 2C CD8+ T cell-vesicle binding, flow cytometry; CD8+/vesicle+ events; at 15.4 µM; stronger effect = lower value
Hit rate of the full screen: of about 1,200 compounds, about 65 (5%) were called active. The list comes from a sample in which actives are over-represented; it also holds close analogues and randomly drawn compounds.
quantityName: double positive events

1) CC(=O)c1ccc(Nc2cc(C)nc3nc(C)nn23)cc1	19.9%
2) COc1ccc(N(CC(=O)O)S(C)(=O)=O)cc1OC	30.5%
3) Nc1nc(SCCO)[nH]c(=O)c1NC(=O)c1ccc(Br)o1	25.8%
4) CCOC(=O)c1sc(NC(=O)CSc2ncn[nH]2)c(C#N)c1C	26.4%
5) COc1ccc(NC(=O)COC(=O)c2cc(Cl)ccc2O)cc1S(=O)(=O)N1CCCCC1	23.1%
6) CC(C)c1ccc(NC(=O)NCc2cccnc2)cc1	22.3%
7) CCn1c(=O)cc(SCC(=O)N2CCN(c3ccccc3F)CC2)c2ccccc21	19.6%
8) COc1ccc(NCC(O)Cn2c(C)c(C)c3ccccc32)cc1 (stereo not drawn)	16.3%
9) Cc1ccc2oc(=O)c(/C=C(\O)c3sc(C)nc3C)nc2c1	0.7%
10) COc1cc(C(C)=O)ccc1O	6.3%
11) O=C(OCCOc1cccc(Cl)c1)c1ccc(F)c(S(=O)(=O)N2CCOCC2)c1	0.7%
12) O=C1c2cccc3c2[C@H](CCC3)CN1[C@@H]1CN2CCC1CC2	28.1%
13) COc1ccc(NC(=O)C2CCC(C(C)(C)C)CC2)cc1S(=O)(=O)N1CCCCC1 (stereo not drawn)	13.7%
14) COc1ccc(N(CC(=O)NCCC2=CCCCC2)S(=O)(=O)c2ccc(C)cc2)cc1OC	22.9%
15) CCCCCC(=O)N[C@@H](c1ccccc1)[C@@H](O)C(=O)O[C@H]1C[C@@]2(O)[C@@H](OC(=O)c3ccccc3)C3[C@](C)(C(=O)[C@H](OC(C)=O)C(=C1C)C2(C)C)[C@@H](O)C[C@H]1OC[C@@]31OC(C)=O (stereo partly drawn)	12%
16) COc1cccc(-c2ccc(NC(=O)C3CCCN(Cc4cc(C)[nH]n4)C3)cc2)c1 (stereo not drawn)	32.2%
17) NC(=O)NC(=O)COC(=O)CN1C(=O)C2CCCCC2C1=O (stereo not drawn)	33.3%
18) Cc1cc2ncn(C(=O)N3CCCCCC3)c2cc1C	21.3%
19) CCOc1ccccc1NC(=O)CN(c1ccc(C)cc1)S(=O)(=O)c1c(C)noc1C	16.7%
20) CCCc1nnc(NC(=O)CCC(=O)N2CCC(Cc3ccccc3)CC2)s1	25.7%
21) COc1ccc(-c2cccc3c2NC(=O)C3=O)cc1OC	26.1%
22) COc1ccc(S(=O)(=O)N(C)C[C@H]2Oc3ccc(NC(=O)C4CC4)cc3C(=O)N([C@H](C)CO)C[C@@H]2C)cc1	16.6%
23) O=C(/C=C/c1ccccc1)OCC(=O)c1ccc[nH]1	30.2%
24) CCOC(=O)C1CCCN(S(=O)(=O)c2ccc(F)c(C(=O)Nc3ccc(F)c(F)c3)c2)C1 (stereo not drawn)	23.8%
25) C=CCn1c(C)cc(-c2csc(NCC)n2)c1C	24.9%
26) CC1c2ccsc2CCN1C(=O)NC(=O)c1ccc(Cl)cc1 (stereo not drawn)	18.4%
27) COc1ccc(NCc2nc3ccccc3n2CCOc2ccccc2)cc1	10.6%
28) CC(C)(CNC(=O)c1cc2c(s1)CCCC2)N1CCOCC1	20.9%
29) Cc1cc(C(=O)COC(=O)Cc2ccc(Cl)cc2)c(C)n1C	22.5%
30) CCSc1nnc(NC(=O)c2ccc(F)c(S(=O)(=O)N3CCOCC3)c2)s1	34.2%
31) Cc1ccc(C(=O)NC(C)CCc2ccccc2)cc1[N+](=O)[O-] (stereo not drawn)	32.4%
32) C/C(=N\Nc1nc2ccccc2[nH]1)c1cc2ccccc2o1	31.4%
33) C=CCN(c1ccc(Br)cc1C(=O)OC)S(C)(=O)=O	2.3%
34) COC(=O)c1ccc(OC(=O)CS(=O)c2ccccc2[N+](=O)[O-])cc1 (stereo not drawn)	3.4%
35) Cc1cc(C(=O)NCc2cc(C(=O)O)oc2C)c(C)o1	14.9%
36) CCOc1ccccc1NC(=O)c1ccc(CN2CCc3ccccc3C2)cc1	30%
37) Cc1sc2ncnc(NCC(C)(C)N3CCOCC3)c2c1C	1.9%
38) CCc1c(C)nc(SCC(=O)Nc2nc(-c3ccc(OC)cc3)cs2)[nH]c1=O	10.4%
39) CC(OC(=O)c1ccc2c(c1)C(=O)N(Cc1ccncc1)C2=O)C(=O)Nc1cccc(Cl)c1Cl (stereo not drawn)	30.5%
40) Cc1noc(C)c1COc1ccc(C(=O)NCc2cccs2)cc1	22.1%
41) COc1ccc(C(=O)O)cc1S(=O)(=O)Nc1cccc(C)c1	17.7%
42) CCOC(=O)C(c1ccccc1)N1CCN(c2ccc(OC)cc2)CC1 (stereo not drawn)	29.9%
43) O=C(Nc1nnc(C2=COCCO2)o1)C1CCCCC1	23%
